EC50 values for the molecules below.
# System Under Test: human CB2 receptor (Homo sapiens (Human), UniProt P34972)
# Assay Notes: Membrane [35S]GTPγS binding assay
# Type: biochemical

Molecule: CCCCCCC(C)(C)c1cc(OC)c(C2C(O)[C@]3(C)CC[C@H]2C3(C)C)c(OC)c1 (stereo partly shown)
EC50: 577 nM
//
Molecule: CCCCCCC(C)(C)c1cc(OC)c(C2=C[C@@H]3CC[C@@]2(C(=O)O)C3(C)C)c(OC)c1
EC50: 344 nM
//
Molecule: CCCCCCC(C)(C)c1cc(OC)c(C2=C[C@@H]3CC[C@@]2(CO)C3(C)C)c(OC)c1
EC50: 136 nM
//
Molecule: CCCCCCC(C)(C)c1cc(OC)c(C2=C[C@H]3CC[C@]2(CO)C3(C)C)c(OC)c1
EC50: 26.4 nM
